The origin of these recorded values is the supplement of paper PMC10126150.

# Tested on: ATP;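 further: ATP exposure 15 min at 22 °C before imaging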
# assayExplanation: switch fluorescence ratio, 500 uM ATP over buffer (Cy3 cluster intensity, sum of 5 cycles each) (fold (ratio)); higher = stronger signal-on switching upon ATP binding; sequences stand for … in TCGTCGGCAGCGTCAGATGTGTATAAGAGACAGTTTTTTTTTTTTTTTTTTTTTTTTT…TC
# conditionsUsed: aptamer strand: ATP DNA aptamer (quencher-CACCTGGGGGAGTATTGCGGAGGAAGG + anchor), 100 nM annealed; ATP concentration: 500 uM
readout: switch fluorescence ratio
Answers are plain numbers.

Study these solved cases before continuing.
residueString	targetOrTestSystem	switch fluorescence ratio
GGTTGCAGGG	ATP	1.01
AAGTGGATTG	ATP	1
TTAGGGTCAG	ATP	0.997
GATCTTAACG	ATP	0.991
TGCTGGGGGT	ATP	1.03

For every record below, what is its switch fluorescence ratio?
1. AAATCATATT
2. ACTGGACACA
3. ATGGTATTTT
4. ATGGCTTCGT
5. GATCATGGGA

Given back:
1: 0.968; 2: 1.22; 3: 1.01; 4: 1.03; 5: 1.03

For every record below, what is its switch fluorescence ratio?
1. AGGTAAGTAG
2. CCTGGGGCTT
3. GGTGTAGAGG
4. GGGTGAAATA
5. GTTTGCCCTG

Given back:
1. 1.01
2. 1.03
3. 1.01
4. 1.02
5. 0.99

For every record below, what is its switch fluorescence ratio?
1. TGGACTTATA
2. ACGATAGGGG
3. TAACTAATTT
4. GAGGGCCGCA
5. ATGTCAAAGC

Given back:
1. 1.02
2. 1.03
3. 1.03
4. 1.05
5. 0.984

---

Provide the reported switch fluorescence ratio of each item.
# Test system: ATP;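 further: ATP exposure 15 min at 22 °C before imaging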
# assayExplanation: switch fluorescence ratio, 500 uM ATP over buffer (Cy3 cluster intensity, sum of 5 cycles each) (fold (ratio)); higher = stronger signal-on switching upon ATP binding; sequences stand for … in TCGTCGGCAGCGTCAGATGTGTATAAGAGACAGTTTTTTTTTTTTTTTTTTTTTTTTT…TC
# conditionsUsed: aptamer strand: ATP DNA aptamer (quencher-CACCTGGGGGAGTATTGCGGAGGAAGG + anchor), 100 nM annealed; ATP concentration: 500 uM
Give bare numbers.

Study these solved cases before continuing.
residueString	targetOrTestSystem	readout	testValue
GAGTGAAATG	ATP	switch fluorescence ratio	1.02
TGAAGCTTGG	ATP	switch fluorescence ratio	1.03
TTAGTGGCGA	ATP	switch fluorescence ratio	1.19

For every record below, what is its switch fluorescence ratio?
1. CTCTGAGAGG
2. GCAGGGATAC
3. CCAGAAGGGT
4. TTTTTATAAG
5. CGTCTTGTGG

Given back:
1: 0.972; 2: 3.4; 3: 0.974; 4: 0.994; 5: 1

---

# Tested on: ATP;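 further: ATP exposure 15 min at 22 °C before imaging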
# assayExplanation: switch fluorescence ratio, 500 uM ATP over buffer (Cy3 cluster intensity, sum of 5 cycles each) (fold (ratio)); higher = stronger signal-on switching upon ATP binding; sequences stand for … in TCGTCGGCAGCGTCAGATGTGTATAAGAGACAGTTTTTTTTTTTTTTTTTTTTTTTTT…TC
# conditionsUsed: aptamer strand: ATP DNA aptamer (quencher-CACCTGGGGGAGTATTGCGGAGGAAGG + anchor), 100 nM annealed; ATP concentration: 500 uM
Response key: rule met means switch fluorescence ratio >= 1; rule not met means switch fluorescence ratio < 1.

residueString	group
GGAAGGGATT	rule met
ACGAGGCTTC	rule met
AGGTGTGAGA	rule met
CGGGCGGGTA	rule met
TGCTTCTGAA	rule not met
GTTGGACAGA	rule met

Could you now look at the following sequence, please?
Asked: For this sequence, is measured switch fluorescence ratio 1 or higher? `GATCTATTGT`
Given back: rule not met

---

Provide the reported switch fluorescence ratio of each item.
# Tested on: ATP;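 further: ATP exposure 15 min at 22 °C before imaging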
# assayExplanation: switch fluorescence ratio, 500 uM ATP over buffer (Cy3 cluster intensity, sum of 5 cycles each) (fold (ratio)); higher = stronger signal-on switching upon ATP binding; sequences stand for … in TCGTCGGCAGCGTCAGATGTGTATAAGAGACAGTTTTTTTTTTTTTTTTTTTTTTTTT…TC
# conditionsUsed: aptamer strand: ATP DNA aptamer (quencher-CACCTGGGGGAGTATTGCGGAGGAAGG + anchor), 100 nM annealed; ATP concentration: 500 uM

Study these solved cases before continuing.
residueString	switch fluorescence ratio
TTCGGCGCTG	1.03
TTCCGGTCTT	1.03

For every record below, what is its switch fluorescence ratio?
1. GTGTATTTTT
2. ATCGCCATCC
3. TATGCAGGGA
4. AGCGGATTCT

Given back:
1. 0.99
2. 1.24
3. 1.16
4. 0.984

For every record below, what is its switch fluorescence ratio?
1. ATGTACGAAT
2. TTTCACCCCT
3. TATGTTTTTC
4. ATTGGGATCC
5. TTCATGAGTT
6. TATTTGGGCA
7. AATAGGCGCG

Given back:
1. 1
2. 1.09
3. 0.969
4. 1.02
5. 1
6. 1.01
7. 1.02

---

# Tested on: ATP;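 further: ATP exposure 15 min at 22 °C before imaging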
# assayExplanation: switch fluorescence ratio, 500 uM ATP over buffer (Cy3 cluster intensity, sum of 5 cycles each) (fold (ratio)); higher = stronger signal-on switching upon ATP binding; sequences stand for … in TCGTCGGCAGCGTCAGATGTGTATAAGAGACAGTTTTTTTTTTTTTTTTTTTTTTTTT…TC
# conditionsUsed: aptamer strand: ATP DNA aptamer (quencher-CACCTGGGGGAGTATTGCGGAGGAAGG + anchor), 100 nM annealed; ATP concentration: 500 uM
readout: switch fluorescence ratio
Numbers only.

Study these solved cases before continuing.
residueString	testValue
ACTTTTCGGG	0.992
TATATTTGTA	0.979
AATCTGATGG	0.974

For every record below, what is its switch fluorescence ratio?
1. CTGGGCCCGG
2. TCCTGGGGGA
3. GGACGTGTTG
4. CGTTCTGAAT
5. CGTGTCCTCG
6. ATAGGCGGGA
7. CGTTTAGGTG

Given back:
[1.16, 1.15, 0.983, 0.99, 1.04, 0.993, 1.02]

For every record below, what is its switch fluorescence ratio?
1. CACGGCAAGA
2. TATTAATGTT

Given back:
1: 1.89; 2: 0.997

For every record below, what is its switch fluorescence ratio?
1. ATGGGTGGCT
2. TGTAAAAAGT
3. TTATCAGTGG
4. TGGTGGCCTT
5. GTATGGGTGG

Given back:
1. 1.01
2. 1
3. 0.971
4. 1.03
5. 1

For every record below, what is its switch fluorescence ratio?
1. AAGCTGGTGT
2. CTAAAGCGCG
3. TAGGCCCTTG

Given back:
1: 1.01; 2: 1.07; 3: 1.01

---

Provide the reported switch fluorescence ratio of each item.
# Tested on: ATP;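 further: ATP exposure 15 min at 22 °C before imaging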
# assayExplanation: switch fluorescence ratio, 500 uM ATP over buffer (Cy3 cluster intensity, sum of 5 cycles each) (fold (ratio)); higher = stronger signal-on switching upon ATP binding; sequences stand for … in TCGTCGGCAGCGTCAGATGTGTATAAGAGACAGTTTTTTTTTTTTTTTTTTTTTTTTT…TC
# conditionsUsed: aptamer strand: ATP DNA aptamer (quencher-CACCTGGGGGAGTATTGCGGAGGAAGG + anchor), 100 nM annealed; ATP concentration: 500 uM
Numbers only.

residueString	targetOrTestSystem	readout	testValue
TGGTAGTTCG	ATP	switch fluorescence ratio	1.01
CGCTCCGGGC	ATP	switch fluorescence ratio	1.23
CGTGGCCGCG	ATP	switch fluorescence ratio	0.959

For every record below, what is its switch fluorescence ratio?
1. CTGTCCGTTG
2. TTGCACCATT
3. GTAGGAGGTG

Given back:
1: 1.01; 2: 1.05; 3: 1.07

---

# Test system: ATP;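 further: ATP exposure 15 min at 22 °C before imaging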
# assayExplanation: switch fluorescence ratio, 500 uM ATP over buffer (Cy3 cluster intensity, sum of 5 cycles each) (fold (ratio)); higher = stronger signal-on switching upon ATP binding; sequences stand for … in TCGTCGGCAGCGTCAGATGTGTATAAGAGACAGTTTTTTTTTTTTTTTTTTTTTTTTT…TC
# conditionsUsed: aptamer strand: ATP DNA aptamer (quencher-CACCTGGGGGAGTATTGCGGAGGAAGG + anchor), 100 nM annealed; ATP concentration: 500 uM
Response key: 1.0 means switch fluorescence ratio >= 1; 0.0 means switch fluorescence ratio < 1.

residueString	targetOrTestSystem	group
GAGATAAGGG	ATP	0.0

Asked: For this sequence, is measured switch fluorescence ratio 1 or higher? `TTTAGTAATA`
Given back: 1.0

Asked: For this sequence, is measured switch fluorescence ratio 1 or higher? `TCTGAGTTTT`
Given back: 1.0

---

# System: ATP;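 further: ATP exposure 15 min at 22 °C before imaging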
# assayExplanation: switch fluorescence ratio, 500 uM ATP over buffer (Cy3 cluster intensity, sum of 5 cycles each) (fold (ratio)); higher = stronger signal-on switching upon ATP binding; sequences stand for … in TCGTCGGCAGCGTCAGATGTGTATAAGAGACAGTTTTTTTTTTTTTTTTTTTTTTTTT…TC
# conditionsUsed: aptamer strand: ATP DNA aptamer (quencher-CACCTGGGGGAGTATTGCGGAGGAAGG + anchor), 100 nM annealed; ATP concentration: 500 uM
Provide the reported switch fluorescence ratio of each item.
Answers are plain numbers.

residueString	targetOrTestSystem	readout	testValue
TGTGTCGCGG	ATP	switch fluorescence ratio	1
ATGTGGGGTA	ATP	switch fluorescence ratio	0.985
TCCTTAAAAA	ATP	switch fluorescence ratio	1.1

For every record below, what is its switch fluorescence ratio?
1. TCATAGTGTT
2. CCGGGGTGTG
3. TTTTCTGTAT
4. TCTCCAGGAA
5. GCTTTGTATG

Given back:
[1.01, 1.08, 1.03, 1.62, 0.968]
